Values compiled from patent US20230233569A1.

- TEST_TARGET: KRAS G12V (Homo sapiens, UniProt P01116+P62937, G12V)
- Sequence (P01116 1-169 isoform P01116-2 G12V limits assumed): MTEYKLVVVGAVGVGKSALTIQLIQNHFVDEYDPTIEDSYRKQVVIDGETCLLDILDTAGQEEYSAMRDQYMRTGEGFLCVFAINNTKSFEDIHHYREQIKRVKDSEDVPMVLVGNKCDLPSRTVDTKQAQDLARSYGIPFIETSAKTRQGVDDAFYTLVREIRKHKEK
- Sequence (P62937 whole entry): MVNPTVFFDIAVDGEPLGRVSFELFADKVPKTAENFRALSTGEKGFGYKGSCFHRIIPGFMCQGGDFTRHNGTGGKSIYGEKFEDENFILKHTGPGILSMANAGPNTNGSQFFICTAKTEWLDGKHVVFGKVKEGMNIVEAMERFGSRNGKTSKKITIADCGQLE
- TEST_METHOD_NOTES: Disruption of BRAF RBD interaction with Ras (FRET / MOA assay, with Cyclophilin A)
- Assay type: biochemical
- COND: KRAS G12V; read-out: KRAS G12V FRET data IC50
pIC50: −log10 of the molar value.

COMPOUND	pIC50
C=CC(=O)N1CC[C@H](C(=O)N(C)[C@H](C(=O)N[C@H]2Cc3cc(O)cc(c3)-c3ccc4c(c3)c(c(-c3cncc(COC)c3)n4CC)CC(C)(C)COC(=O)[C@@H]3CCCN(N3)C2=O)C(C)C)C1	5.00 to 6.00
C=CC(=O)N1CC[C@H](C(=O)N(C)[C@H](C(=O)N[C@H]2Cc3cc(O)cc(c3)-c3ccc4c(c3)c(c(-c3cnccc3COC)n4CC)CC(C)(C)COC(=O)[C@@H]3CCCN(N3)C2=O)C(C)C)C1	7.00 to 8.00
CCn1c(-c2cccnc2[C@H](C)OC)c2c3cc(ccc31)-c1csc(n1)C[C@H](NC(=O)[C@H](C(C)C)N(C)C(=O)N1CC[C@]13CCCN(C)C3)C(=O)N1CCC[C@H](N1)C(=O)OCC(C)(C)C2	5.00 to 6.00
CCn1c(-c2cccnc2[C@H](C)OC)c2c3cc(ccc31)-c1csc(n1)C[C@H](NC(=O)[C@H](C(C)C)N(C)C(=O)N1CC3(CC(N(C)CCOC)C3)C1)C(=O)N1CCC[C@H](N1)C(=O)OCC(C)(C)C2 (atropisomer, axis not shown)	6.00 to 7.00
CCn1c(-c2cccnc2[C@H](C)OC)c2c3cc(ccc31)-c1csc(n1)C[C@H](NC(=O)[C@H](C(C)C)N(C)C(=O)N1C[C@@H]3CN(C)CC[C@@H]31)C(=O)N1CCC[C@H](N1)C(=O)OCC(C)(C)C2	5.00 to 6.00
C=CC(=O)N1CCC(C(=O)N(C)C(C(=O)NC2Cc3nc(cs3)-c3ccc4c(c3)c(c(-c3cccnc3C(C)OC)n4CC)CC(C)(C)COC(=O)C3CCCN(N3)C2=O)C(C)C)C1 (stereo not shown)	< 5.00
CCn1c(-c2cccnc2[C@H](C)OC)c2c3cc(ccc31)-c1csc(n1)C[C@H](NC(=O)[C@H](C(C)C)N(C)C(=O)N1CCC[C@H]1CN(C)C)C(=O)N1CCC[C@H](N1)C(=O)OCC(C)(C)C2	5.00 to 6.00
